Target: NMDA receptor (NR1 + NR2 subunits) (Rattus norvegicus, UniProt P35439+Q00960)
Sequence (Q00960 27-1482, other chains not shown): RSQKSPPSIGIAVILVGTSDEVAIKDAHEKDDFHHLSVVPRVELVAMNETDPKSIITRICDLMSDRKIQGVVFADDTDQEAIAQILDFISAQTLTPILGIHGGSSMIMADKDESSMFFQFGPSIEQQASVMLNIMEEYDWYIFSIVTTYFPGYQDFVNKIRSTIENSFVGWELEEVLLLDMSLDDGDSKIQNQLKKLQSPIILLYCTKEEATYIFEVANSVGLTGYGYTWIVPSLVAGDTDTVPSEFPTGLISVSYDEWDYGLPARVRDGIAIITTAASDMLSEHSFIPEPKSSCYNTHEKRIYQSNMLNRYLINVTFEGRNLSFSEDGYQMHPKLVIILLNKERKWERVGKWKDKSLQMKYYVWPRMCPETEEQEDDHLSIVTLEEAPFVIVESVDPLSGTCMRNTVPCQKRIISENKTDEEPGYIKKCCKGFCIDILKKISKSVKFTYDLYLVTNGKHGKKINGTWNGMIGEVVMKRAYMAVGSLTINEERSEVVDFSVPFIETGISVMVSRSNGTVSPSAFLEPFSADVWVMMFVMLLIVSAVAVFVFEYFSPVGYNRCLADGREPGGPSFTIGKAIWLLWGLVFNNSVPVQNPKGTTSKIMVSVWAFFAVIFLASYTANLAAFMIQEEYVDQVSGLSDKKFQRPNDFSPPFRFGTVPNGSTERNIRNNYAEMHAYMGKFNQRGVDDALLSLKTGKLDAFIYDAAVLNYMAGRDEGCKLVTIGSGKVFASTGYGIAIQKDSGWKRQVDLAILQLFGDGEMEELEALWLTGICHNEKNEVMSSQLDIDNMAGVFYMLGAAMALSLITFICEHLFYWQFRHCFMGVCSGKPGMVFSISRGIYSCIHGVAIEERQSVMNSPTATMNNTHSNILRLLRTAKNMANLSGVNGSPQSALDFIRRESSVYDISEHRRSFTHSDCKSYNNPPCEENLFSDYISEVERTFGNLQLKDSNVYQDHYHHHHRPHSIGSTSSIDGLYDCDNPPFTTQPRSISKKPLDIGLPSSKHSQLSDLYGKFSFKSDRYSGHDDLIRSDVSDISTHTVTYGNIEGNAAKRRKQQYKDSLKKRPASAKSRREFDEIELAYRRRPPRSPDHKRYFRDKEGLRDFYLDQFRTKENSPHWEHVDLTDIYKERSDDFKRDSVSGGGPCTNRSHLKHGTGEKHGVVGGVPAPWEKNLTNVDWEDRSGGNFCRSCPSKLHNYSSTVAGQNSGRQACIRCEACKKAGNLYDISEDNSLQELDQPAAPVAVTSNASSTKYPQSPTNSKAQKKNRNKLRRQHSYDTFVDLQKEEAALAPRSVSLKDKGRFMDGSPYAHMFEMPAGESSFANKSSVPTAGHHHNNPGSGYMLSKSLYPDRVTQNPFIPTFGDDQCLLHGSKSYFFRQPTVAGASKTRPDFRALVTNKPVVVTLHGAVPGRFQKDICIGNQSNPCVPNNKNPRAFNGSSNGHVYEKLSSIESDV
Assay: Two electrode voltage clamp recording from Xenopus laevis oocytes (pH dependence of NMDA antagonism)
Assay type: cell-based
Conditions: pH 7.6; Table 17; read-out: IC50 at pH 7.6
Task for the reader: assign each of the following compounds its reported pIC50.
FYI, pIC50 means -log10 of a concentration in mol per litre.

Quick one: pIC50 for CS(=O)(=O)Nc1ccc(OCC(O)CNC/C=C/c2ccc(F)c(F)c2)cc1 (stereo not shown) ?
7.15

Entry under review: CS(=O)(=O)Nc1ccc(OCC(O)CN2CCN(c3ccc(Cl)c(Cl)c3)CC2)cc1 (stereo not shown) . Reported pIC50?
5.99

# get_value(readout='pIC50', item= CS(=O)(=O)Nc1ccc(OCC(O)CN2CCN(c3ccccn3)CC2)cc1 (stereo not shown) )
4.90

What measured pIC50 goes with CS(=O)(=O)Nc1ccc(OCC(O)CNCCNc2ccccc2)cc1 (stereo not shown) ?
6.88

Need pIC50 of CS(=O)(=O)Nc1ccc(OCC(O)CN2CCN(c3ccccc3)CC2)cc1 (stereo not shown) , thanks.
5.99

Look up pIC50 for this compound: CS(=O)(=O)Nc1ccc(OCC(O)CNC/C=C/c2ccc(Cl)c(Cl)c2)cc1 (stereo not shown)
7.42

Look up pIC50 for this compound: CS(=O)(=O)Nc1ccc(OCC(O)CN2CCN(c3ccc(Cl)cc3)CC2)cc1 (stereo not shown)
6.57

What value of pIC50 has been reported for the following compound? CS(=O)(=O)Nc1ccc(OCC(O)CN2CCN(c3ccc(O)cc3)CC2)cc1 (stereo not shown)
4.55

# pIC50 lookup, item CS(=O)(=O)Nc1ccc(OCC(O)CN2CCN(c3ccc(F)c(F)c3)CC2)cc1 (stereo not shown)
6.25

Need pIC50 of CS(=O)(=O)Nc1ccc(OCC(O)CNCCNc2ccc(Cl)c(Cl)c2)cc1 (stereo not shown) , thanks.
7.21

# get_value(readout='pIC50', item= CS(=O)(=O)Nc1ccc(OCC(O)CNCCNc2ccc(F)c(F)c2)cc1 (stereo not shown) )
6.70

Give its pIC50 value. Item: CCCCN(C/C=C/c1ccc(Cl)c(Cl)c1)CC(O)COc1ccc(NS(C)(=O)=O)cc1 (stereo not shown)
5.59
